System: Bovine cardiac myofibrils
Test: In vitro model of dose-dependent myofibril ATPase modulation (AC1.4, pyruvate kinase/lactate dehydrogenase-coupled ATPase assay at pCa25)
Assay type: biochemical
Details: concentration at which ATPase activity was 1.4-fold higher than the bottom of the dose curve, mean of a minimum of two independent tests
measurementType: AC1.4 (µM)

1. N#CC1CN(S(=O)(=O)N2CCC[C@H](C(=O)N3CCC[C@@H]3C(=O)NCc3ccc(F)c(C(F)(F)F)c3)C2)C1 [Example 297] :: 0.7685
2. CC[C@@H](NC(=O)[C@H]1CCCN1C(=O)c1cccc(S(C)(=O)=O)c1)c1ccc(Cl)c(F)c1 [Example 772] :: 8.175
3. O=C(NCc1ccc(C(F)(F)F)cc1)[C@H]1CCCN1C(=O)[C@H]1CCCN(S(=O)(=O)N2CC(O)(C(F)(F)F)C2)C1 [Example 467] :: 1.9675
4. O=C(N[C@@H](c1cc(F)c(C(F)(F)F)cc1F)C1CC1)[C@H]1C[C@H]2C[C@H]2N1C(=O)c1cc(Cl)cc2cn[nH]c12 [Example 821] :: 1.2142
5. N#CC1CN(S(=O)(=O)N2CCC[C@H](C(=O)N3CCC[C@@H]3C(=O)N[C@H](CO)c3ccc(C(F)(F)F)cc3)C2)C1 [Example 88] :: 0.1344
6. CN1CC(C(=O)N[C@@H](c2ccc(C(F)(F)F)cc2F)C2CC2)N(C(=O)c2cccc(S(C)(=O)=O)c2)C1=O (some centres unmarked) [Example 696] :: 5.525

1. O=C(NC1CN(S(=O)(=O)N2CCC[C@H](C(=O)N3CCC[C@@H]3C(=O)NCc3ccc(C(F)(F)F)cc3)C2)C1)C1CCC1 [Example 754]
2. Cc1ccc(Cl)cc1CNC(=O)[C@H]1CCCN1C(=O)[C@H]1CCCN(S(=O)(=O)N2CC(C#N)C2)C1 [Example 618]
Incoming: Dear colleague, could you let me know whether 1 or 2 has the lower recorded AC1.4? Thanks. Mark your answer with the label of the selected entry.
Outgoing: 2
(2: 3.9205 µM, 1: 7.453 µM)

a. C[C@H](C(=O)NCc1cccc(C(F)(F)F)c1)N(C)C(=O)c1cccc(S(=O)(=O)N2CC(C#N)C2)c1 [Example 455]
b. N#CC1CN(S(=O)(=O)c2cccc(C(=O)N3CCC[C@@H]3C(=O)NCc3cc(F)cc(F)c3F)c2)C1 [Example 100]
c. COc1cccc2c1CCC2NC(=O)[C@H]1CCCN1C(=O)[C@H]1CCCN(S(=O)(=O)N2CC(C#N)C2)C1 (some centres unmarked) [Example 242]
d. CC1CCN1S(=O)(=O)N1CCC[C@H](C(=O)N2CCC[C@@H]2C(=O)NCc2ccc(C(F)(F)F)cc2)C1 (some centres unmarked) [Example 769]
Incoming: Order these by AC1.4, descending, and give the full ranking. To answer, write out the labels according to the requested order.
Outgoing: d, a, c, b

P. CS(=O)(=O)c1cccc(C(=O)N2CCC[C@@H]2C(=O)N[C@@H](c2ccc(Cl)c(F)c2)C2CC2)c1 [Example 426]
Q. C[C@H](C(=O)N[C@H](C)c1ccc(C(F)(F)F)cc1F)N(C)C(=O)[C@@H]1CN(S(=O)(=O)N2CC(C#N)C2)CCO1 [Example 299]
Incoming: Dear colleague, could you let me know whether P or Q has the lower recorded AC1.4? Thanks. Mark your answer with the label of the selected entry.
Outgoing: Q

====

Tested on: Bovine cardiac myofibrils
Experiment: In vitro model of dose-dependent myofibril ATPase modulation (AC1.4, pyruvate kinase/lactate dehydrogenase-coupled ATPase assay at pCa25)
Format: biochemical
Details: concentration at which ATPase activity was 1.4-fold higher than the bottom of the dose curve, mean of a minimum of two independent tests
measurementType: AC1.4 (µM)

1. CS(=O)(=O)c1ccc(C(=O)N2[C@@H](C(=O)N[C@@H](c3ccc(C(F)(F)F)cc3F)C3CC3)C[C@H]3C[C@H]32)cn1 :: 2.1625
2. CCOc1ccc(S(C)(=O)=O)cc1C(=O)N1CCC[C@@H]1C(=O)N[C@@H](c1ccc(C(F)(F)F)cc1F)C1CC1 :: 2.688
3. CS(=O)(=O)c1cccc(C(=O)N2C[C@@H](F)C[C@@H]2C(=O)N[C@@H](c2cc(F)c(Cl)cc2F)C2CC2)c1 :: 0.411

1. CS(=O)(=O)c1cccc(C(=O)N2[C@@H](C(=O)N[C@@H](c3ccc(C(F)(F)F)cc3F)C3CCC3)C[C@H]3C[C@H]32)c1
2. C[C@@H](NC(=O)[C@H]1C[C@H](F)CN1C(=O)[C@H]1CCCN(S(=O)(=O)N2CC(C#N)C2)C1)c1cccc(C(F)(F)F)c1
3. NS(=O)(=O)c1cccc(C(=O)N2CCC[C@@H]2C(=O)N[C@@H](c2cc(F)c(Cl)cc2F)C2CC2)c1
Incoming: Order these by AC1.4, descending, and give the full ranking. To answer, write out the labels according to the requested order.
Outgoing: 2, 3, 1

====

Test system: Bovine cardiac myofibrils
Assay: In vitro model of dose-dependent myofibril ATPase modulation (AC1.4, pyruvate kinase/lactate dehydrogenase-coupled ATPase assay at pCa25)
Type: biochemical
Conditions: concentration at which ATPase activity was 1.4-fold higher than the bottom of the dose curve, mean of a minimum of two independent tests
measurementType: AC1.4 (µM)

Known AC1.4 results, listed for orientation:
1. CS(=O)(=O)c1cccc(C(=O)N2[C@@H](C(=O)N[C@@H](c3cc(F)c(Cl)c(F)c3)C3CC3)C[C@H]3C[C@H]32)c1 :: 0.7012
2. O=C(NCc1ccc(C(F)(F)F)cc1)[C@H]1CCCN1C(=O)[C@H]1CCCN(S(=O)(=O)N2CC(OC(F)F)C2)C1 :: 0.9742
3. O=C(N[C@@H](c1ccc(C(F)(F)F)cc1F)C1CC1)[C@H]1CCCN1C(=O)c1cccc(Cl)c1 :: 1.227

I. CS(=O)(=O)c1cc(C(=O)N2C[C@H]3C[C@H]3[C@@H]2C(=O)N[C@@H](c2cc(F)c(Cl)cc2F)C2CC2)ccn1
II. O=C(NCc1ccc(C(F)(F)F)cc1F)[C@H]1CCCN1C(=O)[C@H]1CCCN(S(=O)(=O)N2CC(OCCF)C2)C1
III. CC(=O)NC1CN(S(=O)(=O)N2CCC[C@H](C(=O)N3CCC[C@@H]3C(=O)NCc3ccc(C(F)(F)F)cc3)C2)C1
Incoming: Order these by AC1.4, descending, and give the full ranking. To answer, write out the labels according to the requested order.
Outgoing: III, I, II
(III: 8.6395 µM, I: 1.3425 µM, II: 0.5593 µM)

====

Tested on: Bovine cardiac myofibrils
Assay: In vitro model of dose-dependent myofibril ATPase modulation (AC1.4, pyruvate kinase/lactate dehydrogenase-coupled ATPase assay at pCa25)
Format: biochemical
Conditions: concentration at which ATPase activity was 1.4-fold higher than the bottom of the dose curve, mean of a minimum of two independent tests
measurementType: AC1.4 (µM)

Known AC1.4 results, listed for orientation:
1. CS(=O)(=O)c1ccnc(C(=O)N2C[C@@H](F)C[C@@H]2C(=O)N[C@@H](c2cc(F)c(Cl)cc2F)C2CC2)c1 :: 0.6767
2. CC(C)[C@@H](NC(=O)[C@H]1CCCN1C(=O)c1cccc(S(=O)(=O)N2CC(C#N)C2)c1)c1ccc(C(F)(F)F)cc1F :: 0.02115
3. CCNc1ccccc1C(=O)N1CCC[C@@H]1C(=O)N[C@@H](c1ccc(C(F)(F)F)cc1F)C1CC1 :: 2.551

a. Cc1cc(C(=O)N2[C@@H](C(=O)N[C@@H](c3ccc(C(F)(F)F)cc3F)C3CC3)C[C@H]3C[C@H]32)c(NC2CC2)cn1
b. COc1cc(C(=O)N2[C@@H](C(=O)N[C@@H](c3cc(F)c(C(F)(F)F)cc3F)C3COC3)C[C@H]3C[C@H]32)ccn1
c. N#CC1CN(S(=O)(=O)N2CCC[C@H](C(=O)N3CCC[C@@H]3C(=O)NCc3ccc(Cl)c(C(F)(F)F)c3)C2)C1
Incoming: Order these by AC1.4, descending, and give the full ranking. To answer, write out the labels according to the requested order.
Outgoing: b, a, c
(b: 2.4 µM, a: 1.5845 µM, c: 0.921 µM)

====

Tested on: Bovine cardiac myofibrils
Test: In vitro model of dose-dependent myofibril ATPase modulation (AC1.4, pyruvate kinase/lactate dehydrogenase-coupled ATPase assay at pCa25)
Assay type: biochemical
Conditions: concentration at which ATPase activity was 1.4-fold higher than the bottom of the dose curve, mean of a minimum of two independent tests
measurementType: AC1.4 (µM)

Known AC1.4 results, listed for orientation:
1. N#CC1CN(S(=O)(=O)N2CCC[C@H](C(=O)N3CCC[C@@H]3C(=O)NCc3c(F)c(F)c(F)c(F)c3F)C2)C1 :: 0.948
2. CC[C@H](NC(=O)[C@H]1CCCN1C(=O)c1cccc(S(=O)(=O)N2CC(C#N)C2)c1)c1ccc(C(F)(F)F)cc1F :: 0.4305
3. O=C(NC1CN(S(=O)(=O)N2CCC[C@H](C(=O)N3CCC[C@@H]3C(=O)NCc3ccc(C(F)(F)F)cc3)C2)C1)C1CC1 :: 5.887
4. CCc1ccnc(C(=O)N2[C@@H](C(=O)N[C@@H](c3ccc(C(F)(F)F)cc3F)C3COC3)C[C@H]3C[C@H]32)c1 :: 8.9175
5. O=C(N[C@@H](c1cc(F)c(Cl)cc1F)C1COC1)[C@H]1C[C@H]2C[C@H]2N1C(=O)c1cccc(C(F)(F)F)n1 :: 2.4895

a. CS(=O)(=O)c1cncc(C(=O)N2[C@@H](C(=O)N[C@@H](c3ccc(C(F)(F)F)c(F)c3)C3CC3)C[C@H]3C[C@H]32)c1
b. N#CC1CN(S(=O)(=O)N2CCC[C@H](C(=O)N3CCC[C@@H]3C(=O)NC(c3ccccc3)c3ccc(Cl)cc3)C2)C1 (stereo partly shown)
Incoming: Dear colleague, could you let me know whether a or b has the lower recorded AC1.4? Thanks. Mark your answer with the label of the selected entry.
Outgoing: b
(b: 0.6764 µM, a: 2.66 µM)

1. N#CC1CN(S(=O)(=O)N2CCC[C@H](C(=O)N3CCC[C@@H]3C(=O)NCc3ccc(C(F)(F)F)c(Cl)c3)C2)C1
2. CN(C)S(=O)(=O)c1cccc(C(=O)N2CCCCC2C(=O)NCc2ccc(C(F)(F)F)cc2)c1 (stereo not shown)
Incoming: Dear colleague, could you let me know whether 1 or 2 has the lower recorded AC1.4? Thanks. Mark your answer with the label of the selected entry.
Outgoing: 1

a. O=C(N[C@@H](c1cc(F)c(Cl)cc1F)C1CC1)[C@H]1C[C@H]2C[C@H]2N1C(=O)c1cncc(S(=O)(=O)C2CC2)c1
b. N#CC1CN(S(=O)(=O)N2CCC[C@H](C(=O)N3CCC[C@@H]3C(=O)NCc3c(F)cccc3C(F)(F)F)C2)C1
Incoming: Which has the higher AC1.4, a or b ? Mark your answer with the label of the selected entry.
Outgoing: b

1. CN(Cc1ccc(C(F)(F)F)cc1)C(=O)[C@H]1CCCN1C(=O)[C@H]1CCCN(S(=O)(=O)N2CC(C#N)C2)C1
2. CS(=O)(=O)c1ccc(C(=O)N2CCC[C@@H]2C(=O)N[C@@H](c2cc(F)c(Cl)cc2F)C2CC2)cn1
Incoming: Dear colleague, could you let me know whether 1 or 2 has the lower recorded AC1.4? Thanks. Mark your answer with the label of the selected entry.
Outgoing: 2
